Test system: SN12C renal
Test: NCI tumour cell line growth inhibition, 48 h

compound	TGI
O=C1Sc2ccccc2C(=O)N2CSCC12 (stereo not given)	> 100 µM
N/C(=N\S(=O)(=O)c1c(C(F)(F)F)cccc1C(F)(F)F)Nc1ccc(Cl)cc1	78.1 µM
Clc1ccc(CSCCc2ccncc2)cc1Cl	42.2 µM
COC(=O)C(=O)C(C(C)=O)C(=O)NCc1ccc(OC)c(OC)c1 (stereo not given)	> 100 µM
O=c1[nH]cnc(NC2C=C(CO)C(O)C2O)c1[N+](=O)[O-] (stereo not given)	> 100 µM
COC(C)(C)[C@@H](O)[C@H]1C[C@H](C)[C@@]2(CC[C@]3(C)[C@@H]2CC[C@@H]2[C@@]4(C)CC[C@@H](OC(C)=O)C(C)(C)[C@@H]4C[C@@H](OC4OC(COC(C)=O)C(O)C(O)C4O)[C@]23C)O1 (stereo not given in full)	19.4 µM
N#CC(=Nc1ccccc1N(C(=O)c1ccccc1)C(=O)c1ccccc1)c1ccccc1	> 100 µM
N#CCc1nc(-c2ccccc2)n[nH]1	> 100 µM
COC(=O)c1cc2c(o1)-c1nccc3c1c(nc1ccccc13)C2=O	18.1 µM
Nc1nc(N)c(N=O)c(Nc2ccc(Br)cc2)n1	> 100 µM
CC(O)CCCOC(c1ccccc1)(c1ccccc1)c1ccccc1 (stereo not given)	30.6 µM
CCOC(=O)c1c(-c2ccccc2)c(-c2ccccc2)cn1C	> 10 µM
CCC1CN2CCc3cc(OC)c(OC)cc3C2CC1CC1c2cc(OC)c(OC)cc2CCN1C(=O)C1CCCN1 (stereo not given)	> 100 µM
N#CC(N=Nc1ccc(Cl)cc1)c1nc2ccccc2o1 (stereo not given)	> 100 µM
S=c1[nH]c2ccc(Br)cc2c(=S)s1	46.5 µM
CCCC(=O)C1=C(O)C(Cc2c(O)c(C)c(O)c(C(=O)CCC)c2O)=C(O)C(C)(C)C1=O	> 50 µM
CCC(C)(O)c1cnc(CC(C)C)c(=O)n1O (stereo not given)	> 100 µM
CCCCn1cnc2c(c(CC#N)nn2-c2ccccc2)c1=N	> 100 µM
COc1c(O)c2c3c(c(C)cc(O)c3c1O)C(=O)C(O)(C(C)(C)C(C)=O)C2=O (stereo not given)	> 100 µM
Nc1nc(Cl)cc(NCC2(CO)CCC(CCc3ccccc3)C2)n1 (stereo not given)	31.1 µM
